Target: UniProt P61073
Experiment: Functional calcium mobilization assay (SDF-1α induced)
Format: cell-based
Conditions: CEM cells, SDF-1α challenge at EC80-EC90; read-out: Ca Flux IC50
Exercise: state measured pIC50 for each of the compounds provided.
Bear in mind: pIC50 is minus log10 of a mol/L concentration; give just that figure.

For NCCCCN(Cc1nccc2c3ccccc3n(CC(N)=O)c12)[C@H]1CCCc2cccnc21 [drawing 765] on UniProt P61073, measured pIC50 was 7.77

The compound c1cnc2c(c1)CCCC2N(CCCCNCC1CC1)Cc1nccc2c1[nH]c1ccccc12 (centres unmarked) on UniProt P61073: pIC50 was 6.14

GET /values?item= NCCCCN(Cc1nccc2c3ccccc3n(CC(=O)NC3CCOCC3)c12)[C@H]1CCCc2cccnc21 &system= UniProt P61073 returns pIC50: 7.68

Summary line: c1cnc2c(c1)CCC[C@@H]2N(CCCCNCC1CC1)Cc1nccc2c1[nH]c1ccccc12 , UniProt P61073, reported pIC50 = 6.35

Let me check: NCCCCN(Cc1nccc2c3ccccc3n(CCC3CCOCC3)c12)[C@H]1CCCc2cccnc21 , system UniProt P61073, measured pIC50 is 7.89

###

Target: hERG potassium channel (Homo sapiens (Human))
Sequence (Q12809 whole entry): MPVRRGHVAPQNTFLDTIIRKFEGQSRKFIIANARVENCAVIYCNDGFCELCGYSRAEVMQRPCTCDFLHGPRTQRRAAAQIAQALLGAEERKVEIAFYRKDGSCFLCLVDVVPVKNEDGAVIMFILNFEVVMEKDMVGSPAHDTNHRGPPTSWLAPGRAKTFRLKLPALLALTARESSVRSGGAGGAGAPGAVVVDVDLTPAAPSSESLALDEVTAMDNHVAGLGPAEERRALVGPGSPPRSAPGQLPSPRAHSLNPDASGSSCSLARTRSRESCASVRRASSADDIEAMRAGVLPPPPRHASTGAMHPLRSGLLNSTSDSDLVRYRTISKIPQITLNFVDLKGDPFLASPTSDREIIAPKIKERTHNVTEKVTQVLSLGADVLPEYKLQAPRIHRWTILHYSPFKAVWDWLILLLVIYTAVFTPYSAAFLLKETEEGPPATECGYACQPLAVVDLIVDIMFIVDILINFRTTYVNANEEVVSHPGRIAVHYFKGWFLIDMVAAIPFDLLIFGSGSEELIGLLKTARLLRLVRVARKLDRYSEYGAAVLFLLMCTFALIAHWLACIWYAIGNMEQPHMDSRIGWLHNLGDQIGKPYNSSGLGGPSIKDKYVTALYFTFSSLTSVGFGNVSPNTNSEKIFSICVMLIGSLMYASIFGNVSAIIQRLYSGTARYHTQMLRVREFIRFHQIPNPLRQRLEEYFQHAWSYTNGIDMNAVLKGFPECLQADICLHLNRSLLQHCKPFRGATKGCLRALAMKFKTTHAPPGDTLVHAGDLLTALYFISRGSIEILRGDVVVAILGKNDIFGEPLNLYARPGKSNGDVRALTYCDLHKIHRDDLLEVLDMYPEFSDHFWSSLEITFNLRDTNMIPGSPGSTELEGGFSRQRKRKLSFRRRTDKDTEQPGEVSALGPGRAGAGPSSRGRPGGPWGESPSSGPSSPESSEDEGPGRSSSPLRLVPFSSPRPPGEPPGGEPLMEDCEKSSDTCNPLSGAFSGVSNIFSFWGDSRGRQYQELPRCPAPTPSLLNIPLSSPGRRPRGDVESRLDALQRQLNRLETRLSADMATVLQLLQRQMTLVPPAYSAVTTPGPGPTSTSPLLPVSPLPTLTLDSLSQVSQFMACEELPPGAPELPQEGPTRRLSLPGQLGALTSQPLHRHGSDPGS
Test: hERG potassium channel current, automatic patch clamp
Type: cell-based
Details: human, mammalian cells expressing hERG potassium channel; 1 μM
I'd appreciate it if you could supply inhibition at 5 min, 1 µM values for the items below.
Quote the value and follow it with the unit of measurement.

Short answer for C[C@@H]1CN(C(=O)Cn2c3ccccc3c3ccnc(CN(CCCCN)[C@H]4CCCc5cccnc54)c32)C[C@H](C)O1 [drawing 826] : inhibition at 5 min, 1 µM was 18%

inhibition at 5 min, 1 µM in this record for CC(C)(C)OC(=O)Cn1c2ccccc2c2ccnc(CN(CCCN3CCNCC3)[C@H]3CCCc4cccnc43)c21 [drawing 825] : 26%

###

Target: CXCR4 (Homo sapiens (Human), UniProt P61073)
Sequence (P61073 whole entry): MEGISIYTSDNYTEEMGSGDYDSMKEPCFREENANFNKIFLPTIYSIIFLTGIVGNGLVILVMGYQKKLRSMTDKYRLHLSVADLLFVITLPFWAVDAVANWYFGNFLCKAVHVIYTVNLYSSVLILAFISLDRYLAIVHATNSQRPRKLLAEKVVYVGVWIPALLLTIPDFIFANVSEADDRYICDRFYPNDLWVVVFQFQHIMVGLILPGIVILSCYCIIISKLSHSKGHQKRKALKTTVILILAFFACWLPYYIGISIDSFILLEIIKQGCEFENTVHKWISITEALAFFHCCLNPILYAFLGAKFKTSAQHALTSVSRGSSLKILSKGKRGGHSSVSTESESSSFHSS
Assay: Functional calcium mobilization assay (SDF-1α induced)
Assay type: cell-based
Details: Table 9, selected compounds; read-out: Ca Flux IC50
Metric: pIC50
Would you please state pIC50, meaning minus log10 of the concentration in mol/L, as a bare number?

Kindly note the recorded pIC50 for NCCCCN(Cc1nccc2c3ccccc3n(CC(N)=O)c12)[C@H]1CCCc2cccnc21 [drawing 832] , which is 7.74

The reported value for CN1CCN(C(=O)Cn2c3ccccc3c3ccnc(CN(CCCCN)[C@H]4CCCc5cccnc54)c32)CC1 [drawing 823] in terms of pIC50 is 7.52

So, NCCCCN(Cc1nccc2c3ccccc3n(CC(=O)O)c12)[C@H]1CCCc2cccnc21 [drawing 820] ? Its pIC50 was 7.66

Entry NCCCCN(Cc1nccc2c3ccccc3n(CCCN)c12)[C@H]1CCCc2cccnc21 [drawing 827] , pIC50 reported as 8.15

// sample NCCCCN(Cc1nccc2c3ccccc3n(CC(=O)NC3CCNCC3)c12)C1CCCc2cccnc21 (stereo not shown) [drawing 821] , its pIC50 was 6.90

The recorded pIC50 for entry NCCCCN(Cc1nccc2c3ccccc3n(CCCN3CCNCC3)c12)[C@H]1CCCc2cccnc21 [drawing 822] equals 7.80

Please fill in: pIC50 reported for C[C@@H]1CN(C(=O)Cn2c3ccccc3c3ccnc(CN(CCCCN)[C@H]4CCCc5cccnc54)c32)C[C@H](C)O1 [drawing 826] = 6.91

pIC50 in this record for O=C(Cn1c2ccccc2c2ccnc(CN(CCCN3CCNCC3)[C@H]3CCCc4cccnc43)c21)C1CCOCC1 : 7.36

Briefly, pIC50 measured for O=C(O)Cn1c2ccccc2c2ccnc(CN(CCCN3CCNCC3)[C@H]3CCCc4cccnc43)c21 [drawing 828] : 6.95

Consider NCCCCN(Cc1nccc2c3ccccc3n(CC(=O)N3CCOCC3)c12)[C@H]1CCCc2cccnc21 [drawing 819] . Its measured pIC50 is 7.92

Briefly, pIC50 measured for CC(C)(C)OC(=O)Cn1c2ccccc2c2ccnc(CN(CCCN3CCNCC3)[C@H]3CCCc4cccnc43)c21 [drawing 825] : 7.43

Field pIC50 (entry NCCCCN(Cc1nccc2c3ccccc3n(CCN3CCNCC3)c12)[C@H]1CCCc2cccnc21 [drawing 829] ) reads 7.26

The compound listed as c1cnc2c(c1)CCCC2N(CCCN1CCNCC1)Cc1nccc2c3ccccc3n(CCN3CCOCC3)c12 (stereo not shown) [drawing 830] shows pIC50 equal to 7.62
